Experiment: solvent given as SMILES
Details: in O
Endpoint Name: solvation free energy, 298 K (kJ/mol)

Look over these answered cases.
{"Compound": "CCCCP(=O)(CCCC)CCCC", "solvation free energy, 298 K, kJ/mol": -46.4}
{"Compound": "CC(C)CCC(C)(C)C", "solvation free energy, 298 K, kJ/mol": 12.3}

A: Cn1ccnc1
B: O=C(O)c1ccc(CO)cc1
C: C=C1C=CC2(C(C)C)CC12 (configuration not stated)
D: CC1=CCC(C(C)C)=CC1
E: Nc1ncnc2c1ncn2C1CCC(CO)O1 (configuration not stated)
Task for the reader: rank each entry by its solvation free energy, 298 K, from the minimum upward. Please, when replying, give the labels in the order that was requested.
E, B, A, C, D
(E: -85.9 kJ/mol, B: -55.8 kJ/mol, A: -35.2 kJ/mol, C: -0.502 kJ/mol, D: -0.126 kJ/mol)

a: O=C(O)CCCCCCc1ccccc1
b: C=CC(C)=CCC=C(C)C
Would you kindly point out which of a and b has the smaller solvation free energy, 298 K figure? Lab note: record the label of whichever item you select.
a
(a: -36.5 kJ/mol, b: -2.09 kJ/mol)

* * *

Assay: solvent given as SMILES
Conditions: in CC(C)CO
Endpoint Name: solvation free energy, 298 K (kJ/mol)
Please give a number only; it is taken to be in kJ/mol.

Look over these answered cases.
{"Chem Smiles": "CCCCBr", "solvation free energy, 298 K, kJ/mol": -17.4}
{"Chem Smiles": "c1ccc2c(c1)Cc1ccccc1-2", "solvation free energy, 298 K, kJ/mol": -38.5}
{"Chem Smiles": "O=C1c2ccccc2-c2ccccc21", "solvation free energy, 298 K, kJ/mol": -43.3}
{"Chem Smiles": "N", "solvation free energy, 298 K, kJ/mol": -10.6}
{"Chem Smiles": "COc1ccccc1C(=O)O", "solvation free energy, 298 K, kJ/mol": -45.4}
{"Chem Smiles": "CCCCCl", "solvation free energy, 298 K, kJ/mol": -15.6}
{"Chem Smiles": "C=CC=C", "solvation free energy, 298 K, kJ/mol": -8.62}
{"Chem Smiles": "O=C(O)c1ccccc1", "solvation free energy, 298 K, kJ/mol": -39.3}

solvation free energy, 298 K for CC(C)C ?
-7.53

* * *

Assay: solvent given as SMILES
Conditions: in CCCCCO
Endpoint Name: solvation free energy, 298 K (kcal/mol)

{"Compound": "c1ccc2c(c1)Cc1ccccc1-2", "Reading": -9.24}
{"Compound": "C=CC=C", "Reading": -2.11}
{"Compound": "NC(N)=S", "Reading": -9.72}
{"Compound": "[HH]", "Reading": 1.64}
{"Compound": "O=C(c1ccccc1)C(O)c1ccccc1 (stereo not given)", "Reading": -14.7}

* * *

Test: solvent given as SMILES
Conditions: in O
Endpoint Name: solvation free energy, 298 K (kcal/mol)

{"Compound": "CC(C)C", "Unit Text": "kcal/mol", "solvation free energy, 298 K": 2.32}

a: COc1cc(Cl)c(Cl)c(Cl)c1Cl
b: O=C(O)CCc1ccccc1
Between a and b , whose recorded solvation free energy, 298 K is greater? Lab note: record the label of whichever item you select.
a
(a: -2.55 kcal/mol, b: -9 kcal/mol)

P: Clc1ccc(Cl)c(-c2cc(Cl)c(Cl)c(Cl)c2)c1
Q: COc1c(Cl)ccc(Cl)c1C(=O)O
Between P and Q , whose recorded solvation free energy, 298 K is greater? Lab note: record the label of whichever item you select.
P

1: CCCCN
2: CCCCOCCO
3: CCCCCc1ccccc1
Task for the reader: rank each entry by its solvation free energy, 298 K, from the minimum upward. Please, when replying, give the labels in the order that was requested.
2, 1, 3
(2: -6.25 kcal/mol, 1: -4.23 kcal/mol, 3: -0.23 kcal/mol)

A: O=CN1CCOCC1
B: Cc1ccc(C=O)o1
Would you kindly point out which of A and B has the smaller solvation free energy, 298 K figure? Lab note: record the label of whichever item you select.
A

1: COC(=O)C(C)(C)C
2: CN(C)C(=O)c1ccccc1
3: COC(CC#N)(OC)OC
Task for the reader: rank each entry by its solvation free energy, 298 K, from the minimum upward. Please, when replying, give the labels in the order that was requested.
2, 3, 1
(2: -9.29 kcal/mol, 3: -6.4 kcal/mol, 1: -2.4 kcal/mol)

P: Cc1ccc(N(O)C(=O)c2ccccc2C)cc1
Q: CCc1cnccn1
R: CCCCC(=O)OCCC(C)CCC=C(C)C (stereo not given)
Task for the reader: rank each entry by its solvation free energy, 298 K, from the minimum upward. Please, when replying, give the labels in the order that was requested.
P, Q, R

a: CCCC(=O)CC(C)=O
b: O=C(O)c1ccc(Br)cc1
Would you kindly point out which of a and b has the smaller solvation free energy, 298 K figure? Lab note: record the label of whichever item you select.
b

I: O=c1[nH]cc(I)c(=O)[nH]1
II: CCCCOC(=O)c1ccc(O)cc1
Would you kindly point out which of I and II has the smaller solvation free energy, 298 K figure? Lab note: record the label of whichever item you select.
I
(I: -18.7 kcal/mol, II: -8.72 kcal/mol)

* * *

Assay: solvent given as SMILES
Settings: in O
Endpoint Name: solvation free energy, 298 K (kJ/mol)

Look over these answered cases.
{"Compound": "O=[N+]([O-])c1ccc(O)cc1", "Endpoint Name": "solvation free energy, 298 K", "Reading": -44.6}
{"Compound": "CC(C)CC(=O)CC(=O)CC(C)C", "Endpoint Name": "solvation free energy, 298 K", "Reading": -18.5}
{"Compound": "C=CCCCC", "Endpoint Name": "solvation free energy, 298 K", "Reading": 6.61}
{"Compound": "CC(C)CCO", "Endpoint Name": "solvation free energy, 298 K", "Reading": -18.5}
{"Compound": "COP(=S)(OC)SCn1nnc2ccccc2c1=O", "Endpoint Name": "solvation free energy, 298 K", "Reading": -42}

a: CCCCCCCCP(=O)(CCCCCCCC)CCCCCCCC
b: CCCCCC(=O)OC
Between a and b , whose recorded solvation free energy, 298 K is greater? Lab note: record the label of whichever item you select.
b
(b: -10.5 kJ/mol, a: -64.8 kJ/mol)

* * *

Test: solvent given as SMILES
Settings: in CC(C)CC(C)(C)C
Entries annotated with measured solvation free energy, 298 K
Please give a number only; it is taken to be in kcal/mol.

{"Chem Smiles": "Oc1ccc(-c2ccccc2)cc1", "Unit Text": "kcal/mol", "solvation free energy, 298 K": -9.58}
{"Chem Smiles": "C#CC=C", "Unit Text": "kcal/mol", "solvation free energy, 298 K": -2.21}
{"Chem Smiles": "C=CCCCC", "Unit Text": "kcal/mol", "solvation free energy, 298 K": -3.78}

solvation free energy, 298 K for O=[N+]([O-])c1ccccc1O ?
-6.5

Record: Cc1cccnc1
-4.97

Record: Oc1ccccc1Br
-6.25

Record: COC(C)(C)C
-3.58

Record: CCC#N
-2.83

Record: CCCc1ccccc1
-5.89

Record: Oc1ccccc1Cl
-5.44

Record: Nc1ccccc1
-5.2

Record: CCCCN(CCC)N=O
-7.18

Record: O=C1c2ccccc2-c2ccccc21
-9.57

Record: c1ccc2c(c1)ccc1ccccc12
-9.75

Record: Nc1ccccc1[N+](=O)[O-]
-7.5

Record: CCC1CCCCC1
-5.28

* * *

Experiment: solvent given as SMILES
Details: in O
Endpoint Name: solvation free energy, 298 K (kcal/mol)

Look over these answered cases.
{"Molecule": "CCCCC(=O)OC", "Unit Text": "kcal/mol", "solvation free energy, 298 K": -2.56}
{"Molecule": "CCCCCCCCO", "Unit Text": "kcal/mol", "solvation free energy, 298 K": -4.07}
{"Molecule": "CCCC(C)=O", "Unit Text": "kcal/mol", "solvation free energy, 298 K": -3.46}
{"Molecule": "CCCCCCCCCCCCCCCCO", "Unit Text": "kcal/mol", "solvation free energy, 298 K": -2.76}
{"Molecule": "FC(Cl)Cl", "Unit Text": "kcal/mol", "solvation free energy, 298 K": 1.54}
{"Molecule": "CC(=O)OCCC(C)C", "Unit Text": "kcal/mol", "solvation free energy, 298 K": -2.29}

P: CCCCCC(=O)CC(=O)CCCCC
Q: FC1(F)C(F)(F)C(F)(F)C1(F)F
Between P and Q , whose recorded solvation free energy, 298 K is greater? Lab note: record the label of whichever item you select.
Q

* * *

Test: solvent given as SMILES
Conditions: in CC(C)O
Endpoint Name: solvation free energy, 298 K (kcal/mol)

Look over these answered cases.
{"Compound": "[HH]", "Reading": 1.45}
{"Compound": "CCCCCCCCCCCCCCO", "Reading": -12.3}
{"Compound": "CCCC", "Reading": -2.03}
{"Compound": "CCOC=O", "Reading": -3.15}

I: c1ccc2c(c1)Cc1ccccc1-2
II: CCC1CO1 (centres undefined)
Between I and II , whose recorded solvation free energy, 298 K is greater? Lab note: record the label of whichever item you select.
II
(II: -3.72 kcal/mol, I: -8.92 kcal/mol)
